compounds and their reported EC50
- test.target: SIRT1 (Homo sapiens, UniProt Q96EB6)
- assay.overview: SIRT1 mass spectrometry (MS) based deacetylation assay
- Type: biochemical
- measurement.parameters: SIRT1 activation, mass spectrometry assay; read-out: ED50 MS ASSAY

# structure.smiles.string, reported.value
rows = [
    ("O=C(Nc1ccccc1-c1cn2c(Cn3ccnc3)csc2n1)c1cnc2ccccc2n1", "< 5 µM"),
]

Data request: Request body: readout EC50, system SIRT1 (Homo sapiens, UniProt Q96EB6), query "COc1cccc(C(=O)Nc2ccc(-c3nc4ncccc4o3)cc2)c1C" . Return the value.
Data returned: > 150 µM

====

- test.target: SIRT1 (Homo sapiens)
- Sequence (Q96EB6 1-747): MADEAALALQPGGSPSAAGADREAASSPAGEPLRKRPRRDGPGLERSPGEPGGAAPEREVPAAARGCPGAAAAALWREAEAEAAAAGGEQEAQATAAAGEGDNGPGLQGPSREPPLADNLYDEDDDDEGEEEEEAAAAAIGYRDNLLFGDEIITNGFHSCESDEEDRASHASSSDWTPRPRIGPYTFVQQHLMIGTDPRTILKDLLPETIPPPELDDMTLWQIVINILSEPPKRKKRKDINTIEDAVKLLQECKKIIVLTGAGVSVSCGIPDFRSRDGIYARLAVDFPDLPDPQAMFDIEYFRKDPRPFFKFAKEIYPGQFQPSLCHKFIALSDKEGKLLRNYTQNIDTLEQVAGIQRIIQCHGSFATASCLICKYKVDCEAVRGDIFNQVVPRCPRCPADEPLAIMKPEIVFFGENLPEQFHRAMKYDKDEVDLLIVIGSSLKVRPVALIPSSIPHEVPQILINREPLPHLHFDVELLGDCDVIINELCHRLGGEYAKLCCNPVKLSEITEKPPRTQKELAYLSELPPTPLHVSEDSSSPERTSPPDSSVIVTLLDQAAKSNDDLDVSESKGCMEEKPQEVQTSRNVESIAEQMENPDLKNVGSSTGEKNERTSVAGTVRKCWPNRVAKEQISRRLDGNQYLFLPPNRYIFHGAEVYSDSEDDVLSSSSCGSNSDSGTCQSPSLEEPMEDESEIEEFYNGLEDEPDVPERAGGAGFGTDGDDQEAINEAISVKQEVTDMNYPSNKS
- assay.overview: SIRT1 mass spectrometry (MS) based deacetylation assay
- Type: biochemical
- measurement.parameters: SIRT1 activation, mass spectrometry assay; read-out: ED50 MS ASSAY
pEC50: −log10 of the molar value.
readout: pEC50

Worked set:
# structure.smiles.string, test.target, reported.value
rows = [
    ("O=C(Nc1cccc(-c2nc3ccncc3s2)c1)c1cccs1", "SIRT1 (Homo sapiens)", "> 5.30"),
    ("COc1cc(C)ccc1C(=O)Nc1cccc(-c2nc3ncccc3s2)c1", "SIRT1 (Homo sapiens)", "> 5.30"),
    ("CN(C)c1ccc(C(=O)Nc2cccc(-c3nc4ncccc4o3)c2)cc1", "SIRT1 (Homo sapiens)", "4.30 to 5.30"),
    ("COc1cc(C(=O)Nc2ccccc2-c2cn3c(CN4CCOCC4)csc3n2)cc(OC)c1OC", "SIRT1 (Homo sapiens)", "4.30 to 5.30"),
    ("O=C(Nc1cccc(-c2nc3ccncc3s2)c1)c1ccc(-c2ccccc2)o1", "SIRT1 (Homo sapiens)", "> 5.30"),
]

Data request: Request body: readout pEC50, system SIRT1 (Homo sapiens), query "COc1cccc(C(=O)Nc2cccc(-c3nc4ncccc4o3)c2)c1C" . Return the value.
Data returned: 4.30 to 5.30

Data request: Request body: readout pEC50, system SIRT1 (Homo sapiens), query "COc1cc(OC)cc(C(=O)Nc2ccccc2-c2nc3cnccc3s2)c1" . Return the value.
Data returned: 4.30 to 5.30

Data request: Request body: readout pEC50, system SIRT1 (Homo sapiens), query "O=C(Nc1ccccc1-c1nc2cc(CN3CCOCC3)cnc2s1)c1ccc2ccccc2n1" . Return the value.
Data returned: > 5.30

Data request: Request body: readout pEC50, system SIRT1 (Homo sapiens), query "COc1cc(C(=O)Nc2cccc(-c3cccnc3)c2)cc(OC)c1OC" . Return the value.
Data returned: 4.30 to 5.30
